Assay: Bioavailability study in rats (i.v. and p.o.)
Format: in vivo
Conditions: male, SD, rat, plasma, iv, i.v. 0.3 mg/kg
property_measured: clearance (mL/min/kg)
Give bare numbers, in mL/min/kg.

Request: // lookup clearance for CCN(Cc1ccccn1)C(=O)Cc1c(-c2ccc(Cl)c(Cl)c2)nc2cc(C)ccn12 [YL-IPA08]
Response: 71.7

###

Experiment: in vitro
Conditions: rat, plasma
property_measured: fraction unbound at 4 h, 1 µM

Request: // lookup fraction unbound at 4 h, 1 µM for CCN(Cc1ccccn1)C(=O)Cc1c(-c2ccc(Cl)c(Cl)c2)nc2cc(C)ccn12 [YL-IPA08]
Response: ~0.01

###

Test: Bioavailability study in rats (i.v. and p.o.)
Assay type: in vivo
Details: male, SD, rat, plasma, po, p.o. 1 mg/kg
property_measured: Tmax (min)
One number for each entry, in min.

Request: // lookup Tmax for CCN(Cc1ccccn1)C(=O)Cc1c(-c2ccc(Cl)c(Cl)c2)nc2cc(C)ccn12
Response: 3

###

Assay: in vitro
Type: in vitro ADME
Settings: rat, microsomes
property_measured: fraction unbound at 4 h, 1 µM
Answers are plain numbers.

Request: // lookup fraction unbound at 4 h, 1 µM for CCN(Cc1ccccn1)C(=O)Cc1c(-c2ccc(Cl)c(Cl)c2)nc2cc(C)ccn12 [YL-IPA08]
Response: 0.428

###

Experiment: Bioavailability study in rats (i.v. and p.o.)
Type: in vivo
Details: male, SD, rat, plasma, po, p.o. 10 mg/kg
property_measured: Cmax (ng/mL)
Give bare numbers, in ng/mL.

Request: // lookup Cmax for CCN(Cc1ccccn1)C(=O)Cc1c(-c2ccc(Cl)c(Cl)c2)nc2cc(C)ccn12
Response: 60.9

###

Assay: Blood/plasma partitional ratio, rat blood
Type: in vitro ADME
Conditions: fresh pooled whole blood with heparin, rat whole blood, 37°C, read-out: blood/plasma partitioning (R b/P)
property_measured: blood plasma ratio at 1 h, 1 µM
Answers are plain numbers.

Request: // lookup blood plasma ratio at 1 h, 1 µM for CCN(Cc1ccccn1)C(=O)Cc1c(-c2ccc(Cl)c(Cl)c2)nc2cc(C)ccn12 [YL-IPA08]
Response: 1.12

###

Assay: Blood/plasma partitional ratio, human blood
Assay type: in vitro ADME
Conditions: fresh pooled whole blood with heparin, human whole blood, 37°C, read-out: blood/plasma partitioning (R b/P)
property_measured: blood plasma ratio at 1 h, 1 µM
Numbers only.

Request: // lookup blood plasma ratio at 1 h, 1 µM for CCN(Cc1ccccn1)C(=O)Cc1c(-c2ccc(Cl)c(Cl)c2)nc2cc(C)ccn12
Response: 1.58

###

Test: Pharmacokinetics in rats with ABT pretreatment (intestinal and hepatic availability)
Conditions: rat, plasma, intravenous, 0.1 mg/kg, Plasma concentration, rats, p.o. 100 mg/kg ABT, i.v. 0.1 mg/kg YL-IPA08, 12 h
property_measured: concentration at 12 h (ng/mL)
One number for each entry, in ng/mL.

Request: // lookup concentration at 12 h for CCN(Cc1ccccn1)C(=O)Cc1c(-c2ccc(Cl)c(Cl)c2)nc2cc(C)ccn12
Response: 4.58

###

Assay: Bioavailability study in rats (i.v. and p.o.)
Format: in vivo
Conditions: male, SD, rat, plasma, po, p.o. 10 mg/kg
property_measured: Tmax (min)
Numbers only, in min.

Request: // lookup Tmax for CCN(Cc1ccccn1)C(=O)Cc1c(-c2ccc(Cl)c(Cl)c2)nc2cc(C)ccn12
Response: 9

###

Test: Bioavailability study in rats (i.v. and p.o.)
Assay type: in vivo
Details: male, SD, rat, plasma, po, p.o. 10 mg/kg, 8 h
property_measured: concentration at 8 h (ng/mL)
One number for each entry, in ng/mL.

Request: // lookup concentration at 8 h for CCN(Cc1ccccn1)C(=O)Cc1c(-c2ccc(Cl)c(Cl)c2)nc2cc(C)ccn12 [YL-IPA08]
Response: 3.61

###

Test: Pharmacokinetics in rats with ABT pretreatment (intestinal and hepatic availability)
Settings: rat, plasma, po, 1 mg/kg, AUC(0-∞), rats, p.o. ABT, p.o. YL-IPA08 (1 mg/kg)
property_measured: AUC(0-inf) (ng·h/mL)
Give bare numbers, in ng·h/mL.

Request: // lookup AUC(0-inf) for CCN(Cc1ccccn1)C(=O)Cc1c(-c2ccc(Cl)c(Cl)c2)nc2cc(C)ccn12
Response: 876

###

Test: Pharmacokinetics in rats with ABT pretreatment (intestinal and hepatic availability)
Conditions: rat, plasma, po, 1 mg/kg, with ABT 100 mg/kg p.o., 15 h before dosing
property_measured: bioavailability (%)
Give bare numbers, in %.

Request: // lookup bioavailability for CCN(Cc1ccccn1)C(=O)Cc1c(-c2ccc(Cl)c(Cl)c2)nc2cc(C)ccn12
Response: 69.7

###

Assay: Pharmacokinetics in rats with ABT pretreatment (intestinal and hepatic availability)
Details: rat, plasma, po, 1 mg/kg, with ABT 50 mg/kg i.v., 1 h before dosing
property_measured: Tmax (min)
Answers are plain numbers, in min.

Request: // lookup Tmax for CCN(Cc1ccccn1)C(=O)Cc1c(-c2ccc(Cl)c(Cl)c2)nc2cc(C)ccn12
Response: 52.2

###

Experiment: Pharmacokinetics in rats with ABT pretreatment (intestinal and hepatic availability)
Details: rat, plasma, iv, 0.5 mg/kg, MRT(0–t), rats, i.v. ABT, i.v. YL-IPA08 (0.5 mg/kg)
property_measured: MRT last (h)
One number for each entry, in h.

Request: // lookup MRT last for CCN(Cc1ccccn1)C(=O)Cc1c(-c2ccc(Cl)c(Cl)c2)nc2cc(C)ccn12
Response: 3.82

###

Test: Bioavailability study in rats (i.v. and p.o.)
Type: in vivo
Settings: male, SD, rat, plasma, po, p.o. 3 mg/kg
property_measured: Cmax
Number plus unit, in that order.

Request: // lookup Cmax for CCN(Cc1ccccn1)C(=O)Cc1c(-c2ccc(Cl)c(Cl)c2)nc2cc(C)ccn12
Response: 19.2 ng/mL

###

Experiment: Bioavailability study in rats (i.v. and p.o.)
Assay type: in vivo
Settings: male, SD, rat, plasma, iv, i.v. 0.3 mg/kg, read-out: Vz
property_measured: Vd (L/kg)
Answers are plain numbers, in L/kg.

Request: // lookup Vd for CCN(Cc1ccccn1)C(=O)Cc1c(-c2ccc(Cl)c(Cl)c2)nc2cc(C)ccn12 [YL-IPA08]
Response: 6.98

###

Assay: Pharmacokinetics in rats with ABT pretreatment (intestinal and hepatic availability)
Settings: rat, plasma, oral, Plasma concentration, rats, i.v. 50 mg/kg ABT, p.o. 1mg/kg YL-IPA08, 0.5 h
property_measured: concentration at 0.5 h
Number plus unit, in that order.

Request: // lookup concentration at 0.5 h for CCN(Cc1ccccn1)C(=O)Cc1c(-c2ccc(Cl)c(Cl)c2)nc2cc(C)ccn12
Response: 0.0303 µg/mL

###

Test: in vivo
Settings: male, SD, rat, po, 1 mg/kg, Plasma concentration
property_measured: concentration at 4 h

Request: // lookup concentration at 4 h for CCN(Cc1ccccn1)C(=O)Cc1c(-c2ccc(Cl)c(Cl)c2)nc2cc(C)ccn12
Response: 34.1 ng/mL

###

Assay: Bioavailability study in rats (i.v. and p.o.)
Format: in vivo
Details: male, SD, rat, plasma, iv, i.v. 0.3 mg/kg, 0.25 h
property_measured: concentration at 0.25 h
Number plus unit, in that order.

Request: // lookup concentration at 0.25 h for CCN(Cc1ccccn1)C(=O)Cc1c(-c2ccc(Cl)c(Cl)c2)nc2cc(C)ccn12
Response: 38.9 ng/mL

###

Experiment: Pharmacokinetics in rats with ABT pretreatment (intestinal and hepatic availability)
Conditions: rat, plasma, oral, Plasma concentration, rats, p.o. 100 mg/kg ABT, p.o. 1 mg/kg YL-IPA08, 6 h
property_measured: concentration at 6 h (ng/mL)
Answers are plain numbers, in ng/mL.

Request: // lookup concentration at 6 h for CCN(Cc1ccccn1)C(=O)Cc1c(-c2ccc(Cl)c(Cl)c2)nc2cc(C)ccn12
Response: 47.7

###

Test: Pharmacokinetics in rats with ABT pretreatment (intestinal and hepatic availability)
Settings: rat, plasma, iv, 0.1 mg/kg, MRT(0–t), rats, p.o. ABT, i.v. YL-IPA08 (0.1 mg/kg)
property_measured: MRT last (h)
Numbers only, in h.

Request: // lookup MRT last for CCN(Cc1ccccn1)C(=O)Cc1c(-c2ccc(Cl)c(Cl)c2)nc2cc(C)ccn12
Response: 5.45

###

Assay: Pharmacokinetics in rats with ABT pretreatment (intestinal and hepatic availability)
Conditions: rat, plasma, oral, Plasma concentration, rats, p.o. 100 mg/kg ABT, p.o. 1 mg/kg YL-IPA08, 1 h
property_measured: concentration at 1 h (ng/mL)
Give bare numbers, in ng/mL.

Request: // lookup concentration at 1 h for CCN(Cc1ccccn1)C(=O)Cc1c(-c2ccc(Cl)c(Cl)c2)nc2cc(C)ccn12
Response: 334

###

Assay: in vitro
Settings: human, Caco-2
Description: Caco-2 cell lines were cultured (ATCC, Manassas, VA, United States) as described previously ([Liu et al., 2014]). […] The cells were cultured for 20–22 days after seeding and then evaluated by measuring the transepithelial electrical resistance (TEER) (Millicell ERS®, Millipore Corporation) before experiments. […]
property_measured: efflux ratio at 120 min, 10 μM
Numbers only.

Example results:
| molecule | measured_value |
| --- | --- |
| CCN(Cc1ccccn1)C(=O)Cc1c(-c2ccc(Cl)c(Cl)c2)nc2cc(C)ccn12 | 0.66 |
| CC(C)NCC(O)COc1cccc2ccccc12 (stereo not drawn) | 0.63 |

Then this molecule:
Request: // lookup efflux ratio at 120 min, 10 μM for C[C@H]1O[C@@H](O[C@H]2[C@@H](O)C[C@H](O[C@H]3[C@@H](O)C[C@H](O[C@H]4CC[C@@]5(C)[C@H](CC[C@@H]6[C@@H]5C[C@@H](O)[C@]5(C)[C@@H](C7=CC(=O)OC7)CC[C@]65O)C4)O[C@@H]3C)O[C@@H]2C)C[C@H](O)[C@@H]1O
Response: 6.25
